Target: T1, monkey CD22 protein (ACROBiosystems, catalog number SI2-R52Ha) (monkey, UniProt F6W485 20-688)
T1 construct: commercial protein; also called monkey CD22-ECD; monkey CD22-ECD-His
T1 sequence: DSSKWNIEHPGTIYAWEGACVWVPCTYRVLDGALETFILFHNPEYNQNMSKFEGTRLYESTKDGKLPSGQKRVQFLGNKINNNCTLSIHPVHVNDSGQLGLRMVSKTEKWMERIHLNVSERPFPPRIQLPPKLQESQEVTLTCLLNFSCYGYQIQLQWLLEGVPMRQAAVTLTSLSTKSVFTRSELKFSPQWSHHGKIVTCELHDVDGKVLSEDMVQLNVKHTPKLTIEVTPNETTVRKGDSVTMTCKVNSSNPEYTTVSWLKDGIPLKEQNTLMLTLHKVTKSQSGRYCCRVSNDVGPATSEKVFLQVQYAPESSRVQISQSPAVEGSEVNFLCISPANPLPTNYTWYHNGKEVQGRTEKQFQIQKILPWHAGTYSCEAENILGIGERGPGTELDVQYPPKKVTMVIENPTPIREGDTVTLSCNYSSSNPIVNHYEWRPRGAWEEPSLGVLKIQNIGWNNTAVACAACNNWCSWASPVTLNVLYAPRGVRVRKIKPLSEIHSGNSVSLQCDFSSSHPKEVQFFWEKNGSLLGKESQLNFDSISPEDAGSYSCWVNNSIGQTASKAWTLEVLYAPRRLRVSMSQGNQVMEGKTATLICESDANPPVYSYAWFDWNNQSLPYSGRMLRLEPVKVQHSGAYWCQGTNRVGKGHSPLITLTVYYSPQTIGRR
Assay: ELISA, coated monkey CD22 protein, antibody 0.001 nM
// returns N unless OD450 is strictly below 0.1 OD450, in which case Y

Q: is_below(OD450, 0.1 OD450) for F1.250.16 (antibody, human IgG1, kappa, V domains shown, human-murine chimeric IgG1 kappa; VL name legible) VH: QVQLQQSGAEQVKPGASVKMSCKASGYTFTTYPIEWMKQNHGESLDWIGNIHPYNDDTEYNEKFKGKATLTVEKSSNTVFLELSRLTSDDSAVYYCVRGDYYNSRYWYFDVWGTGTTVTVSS VL: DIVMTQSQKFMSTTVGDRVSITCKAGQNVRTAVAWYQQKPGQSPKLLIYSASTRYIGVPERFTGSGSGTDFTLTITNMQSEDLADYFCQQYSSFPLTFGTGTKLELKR ?
A: N

Q: Another binder to check: F1.245.2 (antibody, human IgG1, kappa, V domains shown, human-murine chimeric IgG1 kappa) VH: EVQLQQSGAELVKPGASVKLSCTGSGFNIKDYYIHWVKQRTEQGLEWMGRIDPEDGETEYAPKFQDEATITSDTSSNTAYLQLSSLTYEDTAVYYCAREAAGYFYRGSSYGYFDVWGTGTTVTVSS VL: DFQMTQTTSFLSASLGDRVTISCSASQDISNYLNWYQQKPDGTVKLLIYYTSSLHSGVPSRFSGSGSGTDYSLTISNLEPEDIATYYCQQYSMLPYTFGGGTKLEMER
A: Y

Q: Another binder to check: F1.200.11 (antibody, human IgG1, kappa, V domains shown, human-murine chimeric IgG1 kappa) VH: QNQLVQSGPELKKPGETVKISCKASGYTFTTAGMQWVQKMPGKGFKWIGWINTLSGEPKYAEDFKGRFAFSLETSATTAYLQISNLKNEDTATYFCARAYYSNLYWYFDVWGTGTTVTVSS VL: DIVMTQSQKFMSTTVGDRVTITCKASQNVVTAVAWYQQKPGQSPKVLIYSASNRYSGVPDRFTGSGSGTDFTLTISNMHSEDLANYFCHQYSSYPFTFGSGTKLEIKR
A: Y

Q: Another binder to check: m971-hIgG1 (antibody, V domains shown, control anti-CD22 antibody; variable regions from US 8,591,889 on human IgG1 constant regions) VH: QVQLQQSGPGLVKPSQTLSLTCAISGDSVSSNSAAWNWIRQSPSRGLEWLGRTYYRSKWYNDYAVSVKSRITINPDTSKNQFSLQLNSVTPEDTAVYYCAREVTGDLEDAFDIWGQGTMVTVSS VL: DIQMTQSPSSLSASVGDRVTITCRASQTIWSYLNWYQQRPGKAPNLLIYAASSLQSGVPSRFSGRGSGTDFTLTISSLQAEDFATYYCQQSYSIPQTFGQGTKLEIKR
A: Y

Q: Another binder to check: F2.42.9 (antibody, human IgG1, lambda, V domains shown, human-murine chimeric IgG1 lambda; VL name legible) VH: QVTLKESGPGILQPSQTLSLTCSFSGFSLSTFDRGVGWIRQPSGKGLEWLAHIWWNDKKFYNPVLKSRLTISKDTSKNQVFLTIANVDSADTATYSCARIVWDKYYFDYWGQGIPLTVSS VL: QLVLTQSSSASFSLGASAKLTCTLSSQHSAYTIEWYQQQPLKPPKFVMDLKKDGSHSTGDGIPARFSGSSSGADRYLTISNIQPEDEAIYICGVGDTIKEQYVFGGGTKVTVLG
A: Y

Q: Another binder to check: F1.224.1 (antibody, human IgG1, kappa, V domains shown, human-murine chimeric IgG1 kappa; VL name legible) VH: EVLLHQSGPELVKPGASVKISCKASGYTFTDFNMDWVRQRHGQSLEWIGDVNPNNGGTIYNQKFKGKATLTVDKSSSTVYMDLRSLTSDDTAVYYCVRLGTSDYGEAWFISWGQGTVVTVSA VL: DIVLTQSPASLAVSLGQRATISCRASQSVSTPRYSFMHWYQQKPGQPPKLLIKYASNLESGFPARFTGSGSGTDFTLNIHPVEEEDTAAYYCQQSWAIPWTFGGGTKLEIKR
A: N

Q: Another binder to check: F1.216.2 (antibody, human IgG1, kappa, V domains shown, human-murine chimeric IgG1 kappa) VH: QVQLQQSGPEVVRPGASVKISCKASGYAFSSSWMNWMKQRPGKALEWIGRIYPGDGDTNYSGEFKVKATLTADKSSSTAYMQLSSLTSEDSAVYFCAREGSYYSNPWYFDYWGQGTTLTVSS VL: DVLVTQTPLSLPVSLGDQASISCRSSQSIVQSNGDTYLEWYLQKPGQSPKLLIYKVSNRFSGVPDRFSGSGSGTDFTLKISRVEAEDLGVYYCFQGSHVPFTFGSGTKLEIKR
A: N

Q: Another binder to check: F1.120.15 (antibody, human IgG1, kappa, V domains shown, human-murine chimeric IgG1 kappa) VH: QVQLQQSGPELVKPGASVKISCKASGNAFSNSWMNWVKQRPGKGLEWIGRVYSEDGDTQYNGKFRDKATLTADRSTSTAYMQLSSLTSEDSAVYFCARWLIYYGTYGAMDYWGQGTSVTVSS VL: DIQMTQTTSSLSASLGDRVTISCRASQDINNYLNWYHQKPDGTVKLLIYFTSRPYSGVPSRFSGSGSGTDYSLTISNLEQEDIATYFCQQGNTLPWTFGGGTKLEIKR
A: N

Q: Another binder to check: F1.62.10 (antibody, human IgG1, kappa, V domains shown, human-murine chimeric IgG1 kappa) VH: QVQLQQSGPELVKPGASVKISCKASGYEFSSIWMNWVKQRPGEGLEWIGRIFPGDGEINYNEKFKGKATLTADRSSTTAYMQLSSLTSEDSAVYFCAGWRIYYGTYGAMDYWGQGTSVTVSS VL: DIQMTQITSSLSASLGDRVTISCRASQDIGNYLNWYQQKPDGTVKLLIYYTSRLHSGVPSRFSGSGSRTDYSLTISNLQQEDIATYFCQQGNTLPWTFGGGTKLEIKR
A: Y
